# Run description: In vitro cytotoxicity in hypoxic cells (% survival)
# Format: cell-based, Chinese hamster
# Condition context: hamster, v-79 cells, 4 hours, 0.1 mM, read-out: In vitro cytoxicity in hypoxic cells (% survival at 4 hours)
# reported viability at 4 h, 100 µM; entries follow
Report the figure in % without appending any unit label.

Below: 4 compounds and their reported viability at 4 h, 100 µM.
[[record]]
structure_as_smiles = "O=[N+]([O-])c1nccn1[C@@H]1C=C[C@H](O)[C@@H](CO)O1"
result_unit = "%"
recorded_measurement = 56.7

[[record]]
structure_as_smiles = "CC(=O)OC[C@H]1O[C@H](n2ccnc2[N+](=O)[O-])C=C[C@@H]1OC(C)=O"
result_unit = "%"
recorded_measurement = 96

[[record]]
structure_as_smiles = "O=C(OC[C@H]1O[C@H](n2ccnc2[N+](=O)[O-])[C@@H](OC(=O)c2ccccc2)[C@@H]1OC(=O)c1ccccc1)c1ccccc1"
result_unit = "%"
recorded_measurement = 46

[[record]]
structure_as_smiles = "O=C(OC[C@H]1O[C@@H](n2ccnc2[N+](=O)[O-])[C@@H](OC(=O)c2ccccc2)[C@@H]1OC(=O)c1ccccc1)c1ccccc1"
result_unit = "%"
recorded_measurement = 89


Let us move to another entry and its viability at 4 h, 100 µM.
// viability at 4 h, 100 µM value for "CC(=O)OC[C@H]1O[C@@H](n2ccnc2[N+](=O)[O-])C=C[C@@H]1OC(C)=O" : 86.6

----------
# Run description: Pharmacokinetics, localization in tissue in mice bearing B16 melanoma
# Format: in vivo, mouse (C57/BL)
# Condition context: mouse, plasma, ip, 1000 mg/kg; 30 min, 1 g/kg intraperitoneal; read-out: Plasma
Test readout: concentration at 0.5 h (µg/mL)
Report the figure in µg/mL without appending any unit label.

// concentration at 0.5 h value for "O=[N+]([O-])c1nccn1[C@@H]1C=C[C@H](O)[C@@H](CO)O1" : 1050

Source of measurements: patent US4462992A
